Origin of values: patent US20220033484A1

Listed below: kon values for each entry.
- target_desc: T1, cTnI quality control product recombinant protein (human, UniProt P19429 2-210, limits assumed)
- T1 construct: treated as the same molecule; also called cTnI antigen; cardiac troponin I
- run_description: AMC sensor, antibody immobilised, cTnI in solution
Express the result in M⁻¹ s⁻¹ but write the number alone.

Example cases with answers are listed next.
Mutation 1-9 (antibody, V domains shown, Built as m8) VH: EVQLQQSGPELVKPGASVKMSCKASGYTFTLYVVHWVKQKPGQGLEWIGYIQPYLDGTKYNEKFKGKATLTVDKSSSTAFMELSSLTSEDSAVYYCARSGYGQYGLAWLAYWGQGTLVTVSA VL: QAVVIQESALTTSPGETVTLTCRSSTGAATTSNYANWVQEKPDHLFTGLIGGSQNRAPGVPARFSGSLIGDKAALTITGAQTEDEAIYFCALVYSNHWVFGGGTKLTVLG :: 44200
Mutation 1-51 (antibody, V domains shown, Built as m8) VH: EVQLQQSGPELVKPGASVKMSCKASGYTFTIYVVHWVKQKPGQGLEWIGYIQPYIDGTKYNEKFKGKATLTVDKSSSTAFMELSSLTSEDSAVYYCARSGYGQYGLAWLAYWGQGTLVTVSA VL: QAVVIQESALTTSPGETVTLTCRSSTGAATTSQYANWVQEKPDHLFTGLIGGSNNRAPGVPARFSGSLIGDKAALTITGAQTEDEAIYFCALVYSNHWVFGGGTKLTVLG :: 30500

Now for a further binder.
Any idea what kon was measured for Mutation 1-14 (antibody, V domains shown, Built as m8) VH: EVQLQQSGPELVKPGASVKMSCKASGYTFTIYVIHWVKQKPGQGLEWIGYINPYIDGTKYNEKFKGKATLTVDKSSSTAFMELSSLTSEDSAVYYCARSGYGGYGLAWLAYWGQGTLVTVSA VL: QAVVIQESALTTSPGETVTLTCRSSTGAVTTSQYANWVQEKPDHLFTGLIGGSNNRAPGVPARFSGSLIGDKAALTITGAQTEDEAIYFCALVYSNHWVFGGGTKLTVLG ?
25500
